# Kd per entry
Biological target: Human (6-His)Sortilin (Homo sapiens)
Please format your answer as a value with the unit trailing.

1. CC(C)(C)CCC(C)(NCc1ccc2c(c1)CCCO2)C(=O)O (racemic) : 0.76 µM

Now for another entry.
Query: Form entry - test system: Human (6-His)Sortilin (Homo sapiens); read-out: Kd; compound: CC(C)(C)CCC(C)(NCc1ccc2c(c1)CCCC2)C(=O)O (centres unmarked)
Response: 0.304 µM

###

Protein target, amino acids: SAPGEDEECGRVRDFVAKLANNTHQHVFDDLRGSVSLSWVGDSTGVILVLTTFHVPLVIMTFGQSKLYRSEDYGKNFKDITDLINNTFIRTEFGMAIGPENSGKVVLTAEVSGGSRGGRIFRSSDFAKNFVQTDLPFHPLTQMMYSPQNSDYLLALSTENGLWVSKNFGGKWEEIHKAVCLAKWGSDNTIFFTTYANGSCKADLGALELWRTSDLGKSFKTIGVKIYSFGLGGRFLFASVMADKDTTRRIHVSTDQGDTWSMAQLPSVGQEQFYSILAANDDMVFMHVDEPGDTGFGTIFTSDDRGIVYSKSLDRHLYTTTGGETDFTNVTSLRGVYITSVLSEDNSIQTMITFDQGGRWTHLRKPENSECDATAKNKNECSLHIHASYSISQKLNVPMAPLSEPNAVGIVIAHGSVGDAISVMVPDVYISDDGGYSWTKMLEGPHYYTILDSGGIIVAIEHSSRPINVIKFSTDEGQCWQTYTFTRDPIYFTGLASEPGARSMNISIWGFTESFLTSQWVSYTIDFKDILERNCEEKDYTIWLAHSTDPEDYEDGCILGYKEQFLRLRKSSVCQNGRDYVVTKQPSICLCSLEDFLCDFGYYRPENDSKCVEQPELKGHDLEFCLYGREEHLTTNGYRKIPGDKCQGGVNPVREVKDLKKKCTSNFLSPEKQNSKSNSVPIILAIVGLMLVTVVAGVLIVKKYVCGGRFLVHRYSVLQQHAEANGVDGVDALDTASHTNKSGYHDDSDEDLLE
VALUE_TYPE: IC50 (nM)
Kindly provide the numeric value in nM only, without the unit symbol.

Query: If you can, please state the reported IC50 value of CC(C)(C)CCC(C)(NCc1ccc2c(c1)CCC2)C(=O)O (racemic) .
Response: 1070
